Assay: Cytotoxicity counterscreen for inhibitors of SARS-CoV-2 cell entry (AID 1645845); further: nearly all actives have a fitted effect of over 50% in size
Settings: cell viability (SARS-CoV-2 entry assay cells); series mostly up to 57.1 µM
Inconclusive results are not listed. Active and inactive are the calls of the source. The call rests on the fitted dose curve.
# valid calls are active, inactive; nothing else

Worked examples follow.
molecule	category.label
CC(C)(C)C(O)/C=C/c1ccc2c(c1)OCO2 (stereo unspecified)	inactive
CC(=O)Oc1cccc(C)c1	inactive
CN(C)CC/C=C1/c2ccccc2COc2ccc(CC(=O)O)cc21	inactive
COc1cc2ncn(-c3cc(OCc4ccccc4C(F)(F)F)c(C(N)=O)s3)c2cc1OC	active

Recorded call for N[C@H]1C(O)O[C@H](CO)[C@@H](O)[C@@H]1O (stereo partly specified) ?
inactive

Please give the result for `Cc1cc([C@@H](C)Nc2ccccc2C(=O)O)c2nc(N3CCOCC3)cc(=O)n2c1` too.
inactive

Please give the result for `COC(=O)[C@@H](N)CCCN=C(N)N[N+](=O)[O-]` too.
inactive

Please give the result for `CCN(c1ccccc1)c1cc(NC)[n+](C)c(C)n1` too.
inactive

Please give the result for CCCC[N+]1(C)[C@H]2CC(OC(=O)[C@H](CO)c3ccccc3)C[C@H]1[C@H]1O[C@H]12 (stereo partly specified) too.
inactive

Please give the result for NCCCC(N)(C(=O)O)C(F)F (stereo unspecified) too.
inactive

Please give the result for O=C1CCCC2=C1C(c1[nH]ncc1Cl)N=C(Nc1nc3ccccc3o1)N2 (stereo unspecified) too.
inactive

* * *

System: MKL-2
Assay: qHTS assay to identify novel small-molecules to repurpose for Merkel cell carcinoma treatment (AID 1296009); further: nearly all actives have a fitted effect of over 60% in size
Settings: MCC and control cell lines, CellTiter-Glo viability, 72 h; series mostly up to 46 µM
Results filed as inconclusive are left out. Activity calls are given as the source filed them. Calls come from the whole dose curve; as a rule, active = well fitted inhibition curve with a large enough effect; inconclusive = small, poorly fitted or top-dose-only effect; inactive = flat fitted curve, though single readings scatter.
# valid calls are active, inactive; nothing else

compound	category.label
CC(C)[C@H]1C(=O)N[C@H](CO)Cc2c[nH]c3cccc(c23)N1C	inactive
c1cc2ccc3cccc4ccc(c1)c2c34	inactive
c1ccc(CCCN2CCN(CCOC(c3ccccc3)c3ccccc3)CC2)cc1	active

Recorded call for `CC(=O)O[C@@]12CO[C@H]1C[C@H](O)[C@@]1(C)C(=O)[C@H](O)C3=C(C)[C@@H](O)C[C@@](O)([C@@H](OC(=O)c4ccccc4)[C@@H]21)C3(C)C` ?
inactive

Please give the result for `O=C(NCC1CCOCC1)c1cnc(Nc2ccc(Cl)cc2Cl)nc1C(F)(F)F` too.
inactive

Please give the result for `CC(=O)Nc1ccc(OC[C@](C)(O)C(=O)Nc2ccc([N+](=O)[O-])c(C(F)(F)F)c2)cc1` too.
inactive

Please give the result for `CCNC(=O)C[C@@H]1N=C(c2ccc(Cl)cc2)c2cc(OC)ccc2-n2c(C)nnc21` too.
active

Please give the result for C=C[C@@H]1CN2CCC1C[C@@H]2[C@@H](O)c1ccnc2ccccc12 (stereo partly specified) too.
inactive

* * *

Test system: 7G8
Assay: qHTS profiling for inhibitors of Plasmodium falciparum proliferation (AID 504749); further: nearly all actives have a fitted effect of over 60% in size
Conditions: P. falciparum in erythrocytes, SYBR Green DNA, 72 h; series mostly up to 28.7 µM
Results filed as inconclusive are left out. Activity calls are given as the source filed them. Calls follow the shape of the dose curve; as a rule, active = well fitted inhibition curve with a large enough effect; inconclusive = small, poorly fitted or top-dose-only effect; inactive = flat fitted curve, though single readings scatter.
# valid calls are class 1 (active), class 0 (inactive); nothing else

Worked examples follow.
compound	tested.on	category.label
C1CCC(NC2CCCCC2)CC1	7G8	class 0
CC(=O)OCC1=C(C(=O)O)N2C(=O)[C@@H](N)[C@@H]2SC1	7G8	class 0
CC(=O)[O][Hg][c]1ccccc1	7G8	class 1
NC(=O)CN1CC(O)CC1=O (configuration not stated)	7G8	class 0
CCCCCCCCCC(CC)c1ccc(S(=O)(=O)O)cc1 (configuration not stated)	7G8	class 0
O=C(O)COc1ccccc1	7G8	class 0

Pending compound:
Recorded call for `CCCCc1ccc(C(=O)O)nc1` ?
class 0

* * *

Target: M-phase phosphoprotein 8 (Homo sapiens) (UniProt Q99549)
Sequence (Q99549 whole entry, looked up): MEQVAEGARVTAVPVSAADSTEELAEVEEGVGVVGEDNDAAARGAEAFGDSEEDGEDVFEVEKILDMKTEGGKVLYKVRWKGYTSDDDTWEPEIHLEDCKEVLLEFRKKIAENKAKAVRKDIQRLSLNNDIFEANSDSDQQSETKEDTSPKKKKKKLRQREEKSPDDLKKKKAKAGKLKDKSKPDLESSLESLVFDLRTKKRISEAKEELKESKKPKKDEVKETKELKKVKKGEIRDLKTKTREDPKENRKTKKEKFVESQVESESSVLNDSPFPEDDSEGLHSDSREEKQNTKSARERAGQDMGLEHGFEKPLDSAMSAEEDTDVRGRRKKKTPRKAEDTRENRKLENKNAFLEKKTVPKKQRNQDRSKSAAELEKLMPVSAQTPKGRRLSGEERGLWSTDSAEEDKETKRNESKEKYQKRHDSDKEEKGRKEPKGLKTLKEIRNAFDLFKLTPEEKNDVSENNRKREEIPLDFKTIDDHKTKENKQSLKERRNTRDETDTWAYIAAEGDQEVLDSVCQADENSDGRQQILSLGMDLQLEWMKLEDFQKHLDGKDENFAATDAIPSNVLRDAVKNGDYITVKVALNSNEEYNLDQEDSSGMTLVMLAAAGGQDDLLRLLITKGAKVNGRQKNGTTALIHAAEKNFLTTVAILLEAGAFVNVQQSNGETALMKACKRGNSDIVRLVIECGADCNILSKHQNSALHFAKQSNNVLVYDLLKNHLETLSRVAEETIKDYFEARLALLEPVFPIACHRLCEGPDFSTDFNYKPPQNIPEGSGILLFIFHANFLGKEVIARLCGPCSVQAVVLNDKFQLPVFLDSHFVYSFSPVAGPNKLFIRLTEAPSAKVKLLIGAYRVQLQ
Experiment: qHTS Validation Assay for Inhibitors for MPP8 Chromodomain Interactions with Methylated Histone Tails (AID 488949); further: nearly all actives have a fitted effect of over 55% in size
Details: AlphaScreen MPP8 binding to H3K9me3 peptide; series mostly up to 57.1 µM
Inconclusive results are not listed. The source made the active and inactive calls. Calls come from the whole dose curve; as a rule, active = well fitted inhibition curve with a large enough effect; inconclusive = small, poorly fitted or top-dose-only effect; inactive = no such curve, though single readings can be large or run the other way.
# valid calls are TRUE for active, FALSE for inactive; nothing else

Worked examples follow.
compound	category.label
Cc1nc(-c2ccc(-c3ccc(C(=O)N4CCc5cc6c(cc54)C4(CCN(C)CC4)CO6)cc3)c(C)c2)no1	TRUE
c1ccc2sc(C3(N4CCCCC4)CCCCC3)cc2c1	FALSE
CC(Cc1ccc(O)cc1)NCC(O)c1cc(O)cc(O)c1 (stereo unspecified)	FALSE
O=C(O)[C@@H]1CCN1	FALSE
C[C@@H]1O[C@H](C[N+](C)(C)C)C[C@H]1O	FALSE

Recorded call for `C[C@@H](N)Cc1cnc[nH]1` ?
FALSE

Please give the result for `Oc1ccc2c3c1O[C@H]1c4[nH]c5c(c4C[C@@]4(O)[C@@H](C2)N(CC2CC2)CC[C@]314)C[C@@]1(O)[C@H]2Cc3ccc(O)c4c3[C@@]1(CCN2CC1CC1)[C@H]5O4` too.
FALSE

Please give the result for `CC[C@@H](C(N)=O)N1CCCC1=O` too.
FALSE

Please give the result for `Cc1nccc2c1[nH]c1ccccc12` too.
FALSE

Please give the result for `O=C(N[C@H]1CN2CCC1CC2)c1ccc(Cl)cc1` too.
FALSE

Please give the result for NC1CCc2cc(O)c(O)cc2C1 (stereo unspecified) too.
TRUE

Please give the result for `Clc1cnc(Oc2ccc(Oc3ncc(Cl)cc3Cl)cc2)c(Cl)c1` too.
FALSE

Please give the result for `CC[C@@]1(O)C(=O)OCc2c1cc1n(c2=O)Cc2cc3ccccc3nc2-1` too.
FALSE

Please give the result for `CN[C@@H](C)[C@H](O)c1ccccc1` too.
TRUE

Please give the result for `COC(=O)[C@@H](N)CCCN=C(N)N[N+](=O)[O-]` too.
FALSE

Please give the result for `O=C(O)CC[N+](=O)[O-]` too.
FALSE

Please give the result for `CCCN1CCO[C@@H]2c3cc(O)ccc3OC[C@H]21` too.
FALSE

Please give the result for `CNCCc1c[nH]c2ccc(O)cc12` too.
FALSE

Please give the result for `NCCc1c[nH]c2ccc(O)cc12` too.
FALSE

Please give the result for `Cn1cnc(CCN)c1` too.
FALSE

Please give the result for `C[N+](C)(C)CC(=O)O` too.
FALSE

Please give the result for `NCc1cc(=O)[nH]o1` too.
FALSE

Please give the result for c1ccc(C2(c3ccccc3)CC2C2=NCCN2)cc1 (stereo unspecified) too.
FALSE

Please give the result for CN1C2CCC1CC(OC(=O)c1cc(Cl)cc(Cl)c1)C2 (stereo unspecified) too.
FALSE

Please give the result for NC(=O)CN1CC(O)CC1=O (stereo unspecified) too.
FALSE

Please give the result for `NC(=NCCC[C@H](N)C(=O)O)N[N+](=O)[O-]` too.
FALSE

* * *

Assay: Quantitative High-Throughput drug screen in 47 multiple myeloma cell lines against the NCATS MIPE library collection: OCIMY5_PLB cell viability assay (AID 1918988); further: nearly all actives have a fitted effect of over 65% in size; further: potency means the concentration at half of the fitted maximal effect
Settings: OCI-MY5 myeloma viability, ATP luminescence, 48 h; series mostly up to 45.8 µM
Records with an inconclusive call do not appear. Calls of active or inactive are those of the source. Calls follow the shape of the dose curve; as a rule, active = well fitted cell-killing curve with a large enough effect; inconclusive = small, poorly fitted or top-dose-only effect, or effect the other way; inactive = no such curve, though single readings can be large or run the other way.
property.name: Potency

Example cases with answers are listed next.
molecule	Potency
CC(C)N[C@@H]1CCn2c(=O)[nH]c3cccc(c32)[C@@H]1O	118 nM (active)
CC[C@@]1(O)C(=O)OCc2c1cc1n(c2=O)Cc2cc3ccccc3nc2-1	166 nM (active)
C=CCON=C(C[C@H]1O[C@@H]2O[C@]3(C)CC[C@@H]4[C@H](C)CC[C@@H]([C@H]1C)[C@@]24OO3)[C@H]1O[C@@H]2O[C@]3(C)CC[C@H]4[C@H](C)CC[C@@H]([C@@H]1C)[C@@]24OO3	187 nM (active)
C[C@H]1CCCC=CC2C[C@H](O)C[C@@H]2[C@H](O)C=CC(=O)O1 (stereo partly specified)	inactive
CO[C@H]1CCC(O[C@H]2C[C@H]([C@]3(C)CC[C@]4(C[C@H](O)[C@@H](C)[C@@H]([C@@H](C)C=C(C)C(=O)[C@H](C)C[C@H](C)C(=O)O)O4)O3)O[C@]3(O[C@@H]([C@H]4O[C@@](O)(CO)[C@H](C)C[C@H]4C)C[C@H]3C)[C@H]2C)O[C@H]1C (stereo partly specified)	132 nM (active)

Please look at the following molecule next.
// lookup Potency for `COc1cc2cc(c1Cl)N(C)C(=O)C[C@H](OC(=O)C(C)C)[C@]1(C)O[C@H]1[C@H](C)[C@@H]1C[C@@](O)(NC(=O)O1)[C@H](OC)C=CC=C(C)C2`
inactive

* * *

Experiment: NS1 protein of Zika virus - qHTS assay to identify small molecule inhibitors in human HEK 293 cells (AID 1347053);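 further: plate controls were infected untreated cells for no effect and uninfected cells for full effect; nearly all actives have a fitted effect of over 55% in size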
Conditions: HEK293 ZIKV MR766 infection, NS1 TR-FRET, 24 h; series mostly up to 46.1 µM
Results filed as inconclusive are left out. Calls of active or inactive are those of the source. Calls follow the shape of the dose curve; as a rule, active = well fitted inhibition curve with a large enough effect; inconclusive = small, poorly fitted or top-dose-only effect; inactive = no such curve, though single readings can be large or run the other way.

molecule	outcome
C[C@@H]1[C@H](O)[C@@H](C)C=CC=CCCC=CC=CC=CC=C[C@H](O[C@H]2O[C@@H](C)[C@H](O)[C@@H](N)[C@@H]2O)CC2O[C@](O)(C[C@@H](O)[C@H](O)CC[C@@H](O)C[C@@H](O)C[C@@H](O)CC(=O)O[C@H]1C)C[C@H](O)[C@H]2C(=O)O	inactive
CC(C)(C)[C@]1(O)C[C@@H]2OC(=O)C[C@@]23C(=O)O[C@@H]2OC(=O)[C@H](O)C213 (stereo partly drawn)	inactive
NC(=NCCC[C@H](N)C(=O)O)N[N+](=O)[O-]	inactive
